Taken from ChEMBL document CHEMBL4627267.

- experiment description: Cytotoxicity against human CD4-positive T cells assessed as reduction in cell viability at 100 nM
- Assay type: cell-based
- condition: 0.1 µM
test readout: Activity

Query: Field request: Activity | item: "Cc1cc(-c2nc(-c3ccc(F)cc3)c3c(n2)[C@]2(C)C=C(C#N)C(=O)[C@H](C)[C@H]2CC3)ccn1"
Response: 10 to 15%
